What pEC50 was measured for each of the following?
Test system: HCV replicon in Huh7 cells
protocol-details: HCV replicon cell-based assay
Set-up: species or system HCV strain 1B
measurement-context: Hepatitis C virus, Huh-7; HCV replicon, Huh7 cells; read-out: EC50 range
pEC50: −log10 of the molar value.

Sample C=CC1C[C@]1(NC(=O)[C@@H]1C[C@@H](Oc2nccc3cc(C)ccc23)CN1C(=O)[C@@H](NC(=O)OC(C)(C)C)C(C)(C)C)C(=O)NS(=O)(=O)C1CC1 (some centres unmarked) ; pEC50 observed: > 7.00

Recorded result, `C=C[C@@H]1C[C@]1(NC(=O)[C@@H]1C[C@@H](Oc2nccc3cc(OC)ccc23)CN1C(=O)[C@@H](NC(=O)N[C@@H](C)C(=O)OC)C(C)(C)C)C(=O)NS(=O)(=O)C1CC1` , pEC50: 6.00 to 7.00

Lookup result for `C=C[C@@H]1C[C@]1(NC(=O)[C@@H]1C[C@@H](Oc2nccc3cc(OC)ccc23)CN1C(=O)[C@@H](NC(=O)N[C@H](C(=O)OC)C(C)(C)C)C(C)(C)C)C(=O)NS(=O)(=O)C1CC1` ; measured pEC50: > 7.00

Entry `C=C[C@@H]1C[C@]1(NC(=O)[C@@H]1C[C@@H](Oc2ccnc(-c3ccc(OC)cc3)c2)CN1C(=O)[C@@H](NC(=O)OC1CCCC1)C(C)(C)C)C(=O)NS(=O)(=O)C1CC1` , pEC50 reported as 6.00 to 7.00

Form: molecule = C=C[C@@H]1CC1(NC(=O)[C@@H]1CC(Oc2nccc3cc(OC)ccc23)CN1C(=O)[C@@H](NC(=O)CO[C@@H]1C[C@H](C)CC[C@H]1C(C)C)C(C)(C)C)C(=O)NS(=O)(=O)C1CC1 (some centres unmarked) ; pEC50 = 5.00 to 6.00

====

Hi there, I'd appreciate the recorded pEC50 for every entry that follows.
Tested on: HCV replicon in Huh7 cells
protocol-details: HCV replicon cell-based assay
Design: species or system HCV strain 1B
measurement-context: Hepatitis C virus, Huh-7; HCV replicon, Huh7 cells; read-out: EC50 range
pEC50: −log10 of the molar value.

Entry C=C[C@@H]1CC1(NC(=O)[C@@H]1CC(Oc2nccc3cc(OC)ccc23)CN1C(=O)[C@@H](NC(=O)OC1CCCC1)C(C)(C)C)C(=O)NS(=O)(=O)C1CC1 (some centres unmarked) ; pEC50 = > 7.00

The reported pEC50 of the molecule C=CC1C[C@]1(NC(=O)[C@@H]1C[C@@H](Oc2nsc3ccccc23)CN1C(=O)[C@@H](NC(=O)OC(C)(C)C)C(C)(C)C)C(=O)NS(=O)(=O)C1CC1 (some centres unmarked) was 6.00 to 7.00

Form field pEC50, entry C=CC1C[C@]1(NC(=O)[C@@H]1C[C@@H](Oc2nc3ccccc3nc2O)CN1C(=O)[C@@H](NC(=O)OC(C)(C)C)C(C)(C)C)C(=O)NS(=O)(=O)C1CC1 (some centres unmarked) : 4.00 to 5.00

Noted for C=CC1C[C@]1(NC(=O)[C@@H]1C[C@@H](Oc2nnc(O)c3ccccc23)CN1C(=O)[C@@H](NC(=O)OC(C)(C)C)C(C)(C)C)C(=O)NS(=O)(=O)C1CC1 (some centres unmarked) : its pEC50 reads 5.00 to 6.00

The molecule listed as C=CC1C[C@]1(NC(=O)[C@@H]1C[C@@H](Oc2nc(-c3ccc(N(C)C)cc3)cc3cc(OC)ccc23)CN1C(=O)[C@@H](NC(=O)OC(C)(C)C)C(C)(C)C)C(=O)NS(=O)(=O)C1CC1 (some centres unmarked) has a reported pEC50 of > 7.00
